- System: Escherichia coli
- test-details: Antibacterial activity against Escherichia coli
- Format: functional
reported-property: MIC (µg/mL)

O=C(Cn1ncc2cc([N+](=O)[O-])ccc21)N/N=C/c1ccccc1Br ... 18

A: O=C(Cn1ncc2cc([N+](=O)[O-])ccc21)N/N=C/c1ccccc1[N+](=O)[O-]
B: COc1ccccc1/C=N/NC(=O)Cn1ncc2cc([N+](=O)[O-])ccc21
// pick larger MIC from pair: A vs B // output: label of the selected item
B

* * *

- Tested on: Fusarium oxysporum
- test-details: Antifungal activity against Fusarium oxysporum
- Assay type: functional
reported-property: MIC (µg/mL)

A selection of reference data follows.
O=C(Cn1ncc2cc([N+](=O)[O-])ccc21)NN1C(=O)CSC1c1ccccc1O (configuration not stated) ... 15
COc1ccc(C2SCC(=O)N2NC(=O)Cn2ncc3cc([N+](=O)[O-])ccc32)cc1 (configuration not stated) ... 15
COc1ccccc1/C=N/NC(=O)Cn1ncc2cc([N+](=O)[O-])ccc21 ... 20

P: O=C(Cn1ncc2cc([N+](=O)[O-])ccc21)N/N=C/c1ccccc1Br
Q: O=C(Cn1ncc2cc([N+](=O)[O-])ccc21)NN1C(=O)CSC1c1ccccc1[N+](=O)[O-] (configuration not stated)
Could you determine which record has the numerically smaller MIC? Candidates: P and Q // output: label of the selected item
Q
(Q: 9 µg/mL, P: 15 µg/mL)

a: O=C(Cn1ncc2cc([N+](=O)[O-])ccc21)NN1C(=O)CSC1c1cccc(Br)c1 (configuration not stated)
b: COC1=CC(=O)C[C@@H](C)[C@]12Oc1c(Cl)c(OC)cc(OC)c1C2=O [GRISEOFULVIN]
// pick larger MIC from pair: a vs b // output: label of the selected item
a
(a: 13 µg/mL, b: 6 µg/mL)

* * *

Form field: zone of inhibition at 50 µg/mL (one value per entry).
- System: Salmonella typhi
- test-details: Antibacterial activity against Salmonella typhi at 50 ug/mL
- condition-context: read-out: IZ
Just the number in mm, nothing appended.

COc1ccc(/C=N/NC(=O)Cn2ncc3cc([N+](=O)[O-])ccc32)cc1 ... 11
O=C(Cn1ncc2cc([N+](=O)[O-])ccc21)NN1C(=O)CSC1c1ccc(Cl)cc1 (centres undefined) ... 20
COc1ccccc1C1SCC(=O)N1NC(=O)Cn1ncc2cc([N+](=O)[O-])ccc21 (centres undefined) ... 13
O=C(Cn1ncc2cc([N+](=O)[O-])ccc21)NN1C(=O)CSC1c1cccc([N+](=O)[O-])c1 (centres undefined) ... 22
O=C(Cn1ncc2cc([N+](=O)[O-])ccc21)N/N=C/c1ccccc1[N+](=O)[O-] ... 19
CCOC(=O)Cn1ncc2cc([N+](=O)[O-])ccc21 ... 4

Requested field: zone of inhibition at 50 µg/mL. Item: COc1ccccc1/C=N/NC(=O)Cn1ncc2cc([N+](=O)[O-])ccc21
9.8

Please do the same for COc1ccc(C2SCC(=O)N2NC(=O)Cn2ncc3cc([N+](=O)[O-])ccc32)cc1 (centres undefined) as well.
13.8

Please do the same for O=C(Cn1ncc2cc([N+](=O)[O-])ccc21)NN1C(=O)CSC1c1ccccc1[N+](=O)[O-] (centres undefined) as well.
21.2

Please do the same for Cc1ccc(/C=N/NC(=O)Cn2ncc3cc([N+](=O)[O-])ccc32)cc1 as well.
7
